# credit: ChEMBL document CHEMBL3808376

Each entry below carries its recorded pIC50.
assay_overview: Antiproliferative activity against mouse McCoy cells after 48 hrs by Sulforhodamine B assay
Assay type: cell-based
pIC50: −log10 of the molar value.

-- ask State the recorded pIC50 for this entry: CC1(C)[C@H]2CC3=N[C@H](CCC(=O)O)C(=O)O[C@]3(C)[C@@H]1C2
-- reply < 2.92

-- ask State the recorded pIC50 for this entry: C[C@@]12CCCC[C@H]1CC[C@@H]1OC(=O)[C@H](Cc3ccccc3)N=C12
-- reply < 2.77

-- ask State the recorded pIC50 for this entry: C[C@H]1N=C2C[C@H]3C[C@H](C3(C)C)[C@@]2(C)OC1=O
-- reply < 2.74

-- ask State the recorded pIC50 for this entry: CC1(C)[C@H]2CC3=NCC(=O)O[C@]3(C)[C@@H]1C2
-- reply < 2.70

-- ask State the recorded pIC50 for this entry: CC1(C)[C@@H]2CC3=N[C@@H](CCC(=O)O)C(=O)O[C@@]3(C)[C@H]1C2
-- reply < 2.92
